Biological target: UniProt:Q14012
Sequence (Q14012 whole entry, looked up): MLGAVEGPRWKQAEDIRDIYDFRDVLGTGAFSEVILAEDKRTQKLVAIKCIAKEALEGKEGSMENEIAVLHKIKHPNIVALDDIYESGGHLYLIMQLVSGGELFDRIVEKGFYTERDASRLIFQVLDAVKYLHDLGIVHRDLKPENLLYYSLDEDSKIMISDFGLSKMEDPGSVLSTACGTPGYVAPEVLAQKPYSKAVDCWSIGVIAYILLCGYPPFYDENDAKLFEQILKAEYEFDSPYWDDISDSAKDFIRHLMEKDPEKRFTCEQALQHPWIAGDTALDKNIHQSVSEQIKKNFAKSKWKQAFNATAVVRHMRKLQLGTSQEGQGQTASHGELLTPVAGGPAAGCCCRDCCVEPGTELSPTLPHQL
Assay: KINOMEscan competition binding
Settings: compound 10.0 µM
value_kind: kinase still bound, per cent of control (%)
Write down the numeric answer in % and omit the unit.

substance_smiles=Cn1cc(C2=C(c3ccc(Cl)cc3Cl)C(=O)NC2=O)c2ccccc21 value_kind="kinase still bound, per cent of control" unit_abbreviation=% meas_value=98
substance_smiles=COc1ccc(CNC(=O)Nc2ncc([N+](=O)[O-])s2)cc1 value_kind="kinase still bound, per cent of control" unit_abbreviation=% meas_value=100
substance_smiles=O=C1Nc2cc(Br)ccc2/C1=C1/Nc2ccccc2/C1=N\O value_kind="kinase still bound, per cent of control" unit_abbreviation=% meas_value=28

Kindly consider the entry below.
### Prompt Suppose we examine the molecule "Cc1cnc(-c2cnc(NCCNc3ccc(C#N)cn3)nc2-c2ccc(Cl)cc2Cl)[nH]1" ; what kinase still bound, per cent of control value has been reported?
### Response 100

---

kinase still bound, per cent of control: recorded values
Biological target: UniProt:Q8NE63
Sequence (Q8NE63 whole entry, looked up): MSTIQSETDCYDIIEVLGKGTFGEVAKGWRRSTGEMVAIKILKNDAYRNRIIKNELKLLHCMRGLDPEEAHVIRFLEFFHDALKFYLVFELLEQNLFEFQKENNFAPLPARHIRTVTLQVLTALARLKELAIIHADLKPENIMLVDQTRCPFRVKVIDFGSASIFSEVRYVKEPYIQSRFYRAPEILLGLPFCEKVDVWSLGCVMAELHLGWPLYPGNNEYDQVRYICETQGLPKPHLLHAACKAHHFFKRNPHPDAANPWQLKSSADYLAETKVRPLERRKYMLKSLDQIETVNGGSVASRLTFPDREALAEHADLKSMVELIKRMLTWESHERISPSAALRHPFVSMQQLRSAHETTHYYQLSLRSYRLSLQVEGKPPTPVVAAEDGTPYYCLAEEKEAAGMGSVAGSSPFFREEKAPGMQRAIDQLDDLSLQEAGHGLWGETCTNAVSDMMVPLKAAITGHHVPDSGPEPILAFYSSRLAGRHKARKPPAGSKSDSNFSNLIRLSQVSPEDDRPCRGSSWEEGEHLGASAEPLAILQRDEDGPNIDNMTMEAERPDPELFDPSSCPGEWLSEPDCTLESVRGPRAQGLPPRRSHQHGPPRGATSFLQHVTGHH
Assay: KINOMEscan competition binding
Details: compound 10.0 µM
Form entry: value (%) — number only.

// solved cases for kinase still bound, per cent of control follow
substance_smiles=Cc1cnc(-c2cnc(NCCNc3ccc(C#N)cn3)nc2-c2ccc(Cl)cc2Cl)[nH]1 value_kind="kinase still bound, per cent of control" unit_abbreviation=% meas_value=43
substance_smiles=Cn1cc(C2=C(c3ccc(Cl)cc3Cl)C(=O)NC2=O)c2ccccc21 value_kind="kinase still bound, per cent of control" unit_abbreviation=% meas_value=14
substance_smiles=COc1ccc(CNC(=O)Nc2ncc([N+](=O)[O-])s2)cc1 value_kind="kinase still bound, per cent of control" unit_abbreviation=% meas_value=49

Query molecule follows.
### Prompt kinase still bound, per cent of control lookup needed for "O=C1Nc2cc(Br)ccc2/C1=C1/Nc2ccccc2/C1=N\O" , thanks.
### Response 3

---

Molecular target: JAK1 JH2 pseudokinase (human)
Assay: KINOMEscan competition binding
Conditions: compound 10.0 µM
Reported values of kinase still bound, per cent of control for individual entries
Numeric only. Scale: %

substance_smiles=Cn1cc(C2=C(c3ccc(Cl)cc3Cl)C(=O)NC2=O)c2ccccc21 unit_abbreviation=% meas_value=82
substance_smiles=Cc1cnc(-c2cnc(NCCNc3ccc(C#N)cn3)nc2-c2ccc(Cl)cc2Cl)[nH]1 unit_abbreviation=% meas_value=87
substance_smiles=O=C1Nc2cc(Br)ccc2/C1=C1/Nc2ccccc2/C1=N\O unit_abbreviation=% meas_value=48

Let us move to another entry and its kinase still bound, per cent of control.
### Prompt Query: kinase still bound, per cent of control; subject: "COc1ccc(CNC(=O)Nc2ncc([N+](=O)[O-])s2)cc1"
### Response 89

---

Biological target: UniProtKB O15075
Sequence (O15075 whole entry, looked up): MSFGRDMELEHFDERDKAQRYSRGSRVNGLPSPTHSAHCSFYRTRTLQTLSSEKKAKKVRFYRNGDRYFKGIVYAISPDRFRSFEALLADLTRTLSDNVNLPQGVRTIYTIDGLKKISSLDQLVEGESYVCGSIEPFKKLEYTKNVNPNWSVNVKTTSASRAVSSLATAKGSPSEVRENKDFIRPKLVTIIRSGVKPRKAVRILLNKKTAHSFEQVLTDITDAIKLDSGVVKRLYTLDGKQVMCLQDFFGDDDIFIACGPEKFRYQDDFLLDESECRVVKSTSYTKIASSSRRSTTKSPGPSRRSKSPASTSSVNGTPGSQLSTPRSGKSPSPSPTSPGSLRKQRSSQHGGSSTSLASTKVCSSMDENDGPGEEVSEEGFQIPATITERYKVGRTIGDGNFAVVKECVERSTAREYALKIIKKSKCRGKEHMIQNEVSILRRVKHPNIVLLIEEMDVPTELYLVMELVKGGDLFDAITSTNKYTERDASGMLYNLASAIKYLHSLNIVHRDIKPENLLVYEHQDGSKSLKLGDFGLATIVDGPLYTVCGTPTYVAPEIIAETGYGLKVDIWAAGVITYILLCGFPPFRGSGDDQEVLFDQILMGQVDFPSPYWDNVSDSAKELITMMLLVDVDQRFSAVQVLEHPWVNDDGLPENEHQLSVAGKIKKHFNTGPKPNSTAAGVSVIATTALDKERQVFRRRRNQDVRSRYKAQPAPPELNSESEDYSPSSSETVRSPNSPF
Test: KINOMEscan competition binding
Settings: compound 10.0 µM
value_kind: kinase still bound, per cent of control
Give your result as the value with the unit written after it.

### Prompt What measured kinase still bound, per cent of control goes with "Cc1cnc(-c2cnc(NCCNc3ccc(C#N)cn3)nc2-c2ccc(Cl)cc2Cl)[nH]1" ?
### Response 100%

### Prompt What about this compound? "O=C1Nc2cc(Br)ccc2/C1=C1/Nc2ccccc2/C1=N\O"
### Response 99%

### Prompt # iterate: "COc1ccc(CNC(=O)Nc2ncc([N+](=O)[O-])s2)cc1"
### Response 100%

### Prompt Queued: "Cn1cc(C2=C(c3ccc(Cl)cc3Cl)C(=O)NC2=O)c2ccccc21"
### Response 100%

---

Target: EPHB4 (human)
Assay: KINOMEscan competition binding
Conditions: compound 10.0 µM
Recorded kinase still bound, per cent of control by entry
// units = %; emit number, no label

substance_smiles=O=C1Nc2cc(Br)ccc2/C1=C1/Nc2ccccc2/C1=N\O system_tested="EPHB4 (human)" unit_abbreviation=% meas_value=48
substance_smiles=Cc1cnc(-c2cnc(NCCNc3ccc(C#N)cn3)nc2-c2ccc(Cl)cc2Cl)[nH]1 system_tested="EPHB4 (human)" unit_abbreviation=% meas_value=100
substance_smiles=COc1ccc(CNC(=O)Nc2ncc([N+](=O)[O-])s2)cc1 system_tested="EPHB4 (human)" unit_abbreviation=% meas_value=100

### Prompt Any idea what kinase still bound, per cent of control was measured for "Cn1cc(C2=C(c3ccc(Cl)cc3Cl)C(=O)NC2=O)c2ccccc21" ?
### Response 100

---

Target: MAPK15 (human) (UniProt Q8TD08)
Sequence (Q8TD08 whole entry, looked up): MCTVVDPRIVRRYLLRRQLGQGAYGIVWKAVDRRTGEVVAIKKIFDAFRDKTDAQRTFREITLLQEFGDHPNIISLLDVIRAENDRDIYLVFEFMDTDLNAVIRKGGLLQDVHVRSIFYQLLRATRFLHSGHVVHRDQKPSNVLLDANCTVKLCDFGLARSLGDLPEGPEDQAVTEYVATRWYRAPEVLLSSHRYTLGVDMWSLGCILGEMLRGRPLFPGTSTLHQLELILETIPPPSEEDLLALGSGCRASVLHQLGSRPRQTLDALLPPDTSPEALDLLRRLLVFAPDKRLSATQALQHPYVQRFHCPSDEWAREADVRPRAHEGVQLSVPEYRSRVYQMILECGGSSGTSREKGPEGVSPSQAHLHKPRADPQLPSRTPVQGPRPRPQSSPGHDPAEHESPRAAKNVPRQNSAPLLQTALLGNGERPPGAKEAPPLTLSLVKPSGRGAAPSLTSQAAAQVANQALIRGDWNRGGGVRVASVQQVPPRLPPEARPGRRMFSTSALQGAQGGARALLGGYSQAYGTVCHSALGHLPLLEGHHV
Test: KINOMEscan competition binding
Conditions: compound 10.0 µM
# Lookup of reported kinase still bound, per cent of control keyed by entry
Response body: numeric value in %, unit text excluded.

Below: 3 compounds and their reported kinase still bound, per cent of control.
substance_smiles=Cn1cc(C2=C(c3ccc(Cl)cc3Cl)C(=O)NC2=O)c2ccccc21 meas_value=1.7
substance_smiles=Cc1cnc(-c2cnc(NCCNc3ccc(C#N)cn3)nc2-c2ccc(Cl)cc2Cl)[nH]1 meas_value=68
substance_smiles=COc1ccc(CNC(=O)Nc2ncc([N+](=O)[O-])s2)cc1 meas_value=51

Now, please, on to the next compound.
### Prompt Value wanted: kinase still bound, per cent of control (MAPK15 (human) (UniProt Q8TD08)) of entry "O=C1Nc2cc(Br)ccc2/C1=C1/Nc2ccccc2/C1=N\O"
### Response 29

---

Target: UniProt Q8IU85
Sequence (Q8IU85 whole entry, looked up): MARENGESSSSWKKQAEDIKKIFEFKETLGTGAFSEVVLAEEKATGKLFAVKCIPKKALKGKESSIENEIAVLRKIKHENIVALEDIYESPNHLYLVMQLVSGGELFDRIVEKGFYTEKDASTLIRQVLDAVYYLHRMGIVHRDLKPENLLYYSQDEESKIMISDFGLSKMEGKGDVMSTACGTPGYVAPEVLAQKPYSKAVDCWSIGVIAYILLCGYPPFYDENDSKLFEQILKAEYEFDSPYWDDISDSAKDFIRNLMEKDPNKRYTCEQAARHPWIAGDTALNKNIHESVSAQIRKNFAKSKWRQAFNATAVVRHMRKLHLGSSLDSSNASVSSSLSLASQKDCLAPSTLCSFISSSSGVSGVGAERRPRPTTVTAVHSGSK
Experiment: KINOMEscan competition binding
Settings: compound 10.0 µM
value_kind: kinase still bound, per cent of control (%)
# unit: % | format: bare number

substance_smiles=Cc1cnc(-c2cnc(NCCNc3ccc(C#N)cn3)nc2-c2ccc(Cl)cc2Cl)[nH]1 unit_abbreviation=% meas_value=100
substance_smiles=O=C1Nc2cc(Br)ccc2/C1=C1/Nc2ccccc2/C1=N\O unit_abbreviation=% meas_value=45
substance_smiles=Cn1cc(C2=C(c3ccc(Cl)cc3Cl)C(=O)NC2=O)c2ccccc21 unit_abbreviation=% meas_value=76

### Prompt Fill in the recorded kinase still bound, per cent of control for this compound, with UniProt Q8IU85 as test system: "COc1ccc(CNC(=O)Nc2ncc([N+](=O)[O-])s2)cc1"
### Response 100

---

Biological target: ADCK4 (human) (UniProt Q96D53)
Sequence (Q96D53 whole entry, looked up): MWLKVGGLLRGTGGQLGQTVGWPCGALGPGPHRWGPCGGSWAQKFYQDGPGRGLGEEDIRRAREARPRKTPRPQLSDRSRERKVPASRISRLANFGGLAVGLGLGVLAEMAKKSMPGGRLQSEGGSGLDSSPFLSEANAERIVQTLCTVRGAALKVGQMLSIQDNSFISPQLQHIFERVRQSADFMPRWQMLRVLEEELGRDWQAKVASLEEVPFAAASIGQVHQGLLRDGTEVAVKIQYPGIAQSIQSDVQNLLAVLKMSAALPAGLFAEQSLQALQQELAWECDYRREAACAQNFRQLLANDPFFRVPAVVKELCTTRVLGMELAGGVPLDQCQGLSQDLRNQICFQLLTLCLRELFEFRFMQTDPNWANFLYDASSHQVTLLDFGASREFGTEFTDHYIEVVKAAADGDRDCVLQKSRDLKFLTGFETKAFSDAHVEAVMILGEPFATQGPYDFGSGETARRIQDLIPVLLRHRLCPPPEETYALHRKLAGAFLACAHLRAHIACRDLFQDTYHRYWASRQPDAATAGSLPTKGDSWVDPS
Test: KINOMEscan competition binding
Settings: compound 10.0 µM
value_kind: kinase still bound, per cent of control (%)
State just the number; it will be interpreted in %.

substance_smiles=Cc1cnc(-c2cnc(NCCNc3ccc(C#N)cn3)nc2-c2ccc(Cl)cc2Cl)[nH]1 unit_abbreviation=% meas_value=100
substance_smiles=COc1ccc(CNC(=O)Nc2ncc([N+](=O)[O-])s2)cc1 unit_abbreviation=% meas_value=100
substance_smiles=O=C1Nc2cc(Br)ccc2/C1=C1/Nc2ccccc2/C1=N\O unit_abbreviation=% meas_value=57

Lab note: next compound to report on.
### Prompt State the recorded kinase still bound, per cent of control for this entry: "Cn1cc(C2=C(c3ccc(Cl)cc3Cl)C(=O)NC2=O)c2ccccc21"
### Response 100

---

Target: SGK110 (human) (UniProt P0C264)
Sequence (P0C264 whole entry, looked up): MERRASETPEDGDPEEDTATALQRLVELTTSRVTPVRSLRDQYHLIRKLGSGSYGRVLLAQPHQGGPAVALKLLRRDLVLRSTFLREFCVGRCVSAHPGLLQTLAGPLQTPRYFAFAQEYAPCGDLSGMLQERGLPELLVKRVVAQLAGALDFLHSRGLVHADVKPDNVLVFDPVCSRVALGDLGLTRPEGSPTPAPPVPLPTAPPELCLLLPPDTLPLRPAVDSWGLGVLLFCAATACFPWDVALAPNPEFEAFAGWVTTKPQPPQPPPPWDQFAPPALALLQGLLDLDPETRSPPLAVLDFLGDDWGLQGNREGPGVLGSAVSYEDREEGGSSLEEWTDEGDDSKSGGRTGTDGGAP
Assay: KINOMEscan competition binding
Conditions: compound 10.0 µM
value_kind: kinase still bound, per cent of control (%)
Write it as a number; the unit % goes unstated.

Example compounds with recorded kinase still bound, per cent of control:
substance_smiles=Cc1cnc(-c2cnc(NCCNc3ccc(C#N)cn3)nc2-c2ccc(Cl)cc2Cl)[nH]1 system_tested="SGK110 (human) (UniProt P0C264)" value_kind="kinase still bound, per cent of control" meas_value=100
substance_smiles=O=C1Nc2cc(Br)ccc2/C1=C1/Nc2ccccc2/C1=N\O system_tested="SGK110 (human) (UniProt P0C264)" value_kind="kinase still bound, per cent of control" meas_value=100
substance_smiles=COc1ccc(CNC(=O)Nc2ncc([N+](=O)[O-])s2)cc1 system_tested="SGK110 (human) (UniProt P0C264)" value_kind="kinase still bound, per cent of control" meas_value=83

Turning now to a further record.
### Prompt Which kinase still bound, per cent of control value is on record for "Cn1cc(C2=C(c3ccc(Cl)cc3Cl)C(=O)NC2=O)c2ccccc21" ?
### Response 100

---

Parameter: kinase still bound, per cent of control. Scope: all listed entries.
Biological target: UniProt:P53355
Test: KINOMEscan competition binding
Conditions: compound 10.0 µM
Record the value in %, omitting the unit from your answer.

Use these answered entries as a reference point.
substance_smiles=O=C1Nc2cc(Br)ccc2/C1=C1/Nc2ccccc2/C1=N\O value_kind="kinase still bound, per cent of control" meas_value=3.6
substance_smiles=COc1ccc(CNC(=O)Nc2ncc([N+](=O)[O-])s2)cc1 value_kind="kinase still bound, per cent of control" meas_value=99
substance_smiles=Cc1cnc(-c2cnc(NCCNc3ccc(C#N)cn3)nc2-c2ccc(Cl)cc2Cl)[nH]1 value_kind="kinase still bound, per cent of control" meas_value=84

### Prompt Param item = "Cn1cc(C2=C(c3ccc(Cl)cc3Cl)C(=O)NC2=O)c2ccccc21" ; retrieve measured kinase still bound, per cent of control.
### Response 79

---

Biological target: PLK2 (human) (UniProt Q9NYY3)
Sequence (Q9NYY3 whole entry, looked up): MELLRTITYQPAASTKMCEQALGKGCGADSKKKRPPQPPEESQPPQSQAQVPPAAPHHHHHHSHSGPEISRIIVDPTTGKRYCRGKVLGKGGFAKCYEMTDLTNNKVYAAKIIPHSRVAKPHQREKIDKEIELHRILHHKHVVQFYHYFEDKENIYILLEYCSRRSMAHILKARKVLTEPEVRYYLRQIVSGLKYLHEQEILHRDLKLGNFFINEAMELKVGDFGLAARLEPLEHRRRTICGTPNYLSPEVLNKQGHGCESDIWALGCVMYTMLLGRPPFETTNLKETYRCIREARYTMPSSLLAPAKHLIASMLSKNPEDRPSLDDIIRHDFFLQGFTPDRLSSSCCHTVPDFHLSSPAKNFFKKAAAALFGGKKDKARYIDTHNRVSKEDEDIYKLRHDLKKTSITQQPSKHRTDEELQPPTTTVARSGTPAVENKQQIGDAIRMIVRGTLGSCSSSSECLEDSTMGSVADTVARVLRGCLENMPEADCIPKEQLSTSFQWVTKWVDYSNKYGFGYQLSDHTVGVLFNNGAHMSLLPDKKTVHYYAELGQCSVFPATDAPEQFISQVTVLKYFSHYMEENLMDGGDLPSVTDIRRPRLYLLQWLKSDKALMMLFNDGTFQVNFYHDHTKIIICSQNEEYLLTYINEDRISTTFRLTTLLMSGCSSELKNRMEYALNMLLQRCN
Assay: KINOMEscan competition binding
Conditions: compound 10.0 µM
Reported kinase still bound, per cent of control values are given for each entry in this list.
Expressed in %, but write only the number.

Below, 2 compounds whose answers are already recorded.
substance_smiles=COc1ccc(CNC(=O)Nc2ncc([N+](=O)[O-])s2)cc1 value_kind="kinase still bound, per cent of control" meas_value=100
substance_smiles=Cn1cc(C2=C(c3ccc(Cl)cc3Cl)C(=O)NC2=O)c2ccccc21 value_kind="kinase still bound, per cent of control" meas_value=100

### Prompt Could you share which kinase still bound, per cent of control value was measured for "Cc1cnc(-c2cnc(NCCNc3ccc(C#N)cn3)nc2-c2ccc(Cl)cc2Cl)[nH]1" ?
### Response 79

### Prompt What about "O=C1Nc2cc(Br)ccc2/C1=C1/Nc2ccccc2/C1=N\O" ?
### Response 87

All values here come from the kinase profiling compilation of Christmann-Franck et al. (2016).
